Source: patent US11999727B2

Each item that follows carries a reported pIC50.
biological target: PRMT5 (Homo sapiens); construct: purchased Viva (custom protein); test: PRMT5 biochemical IC50 assay with MTA as cofactor; details: PRMT5, MTA as cofactor; read-out: MTA IC50
pIC50: −log10 of the molar value.

// below: answered compounds
compound="CNS(=O)(=O)c1ccc([C@@H]2CC[C@@H](C)CN2C(=O)C(=O)Nc2cncc(C(N)=O)c2)cc1 (single isomer, unassigned) [Compound 723]" result="< 6.30"
compound="CCc1cc(NC(=O)C(=O)N2C[C@@H](C)CC[C@@H]2c2ccc3sc(C4CC5(C4)CN(C)C5)nc3c2)cnc1N [Compound 1283]" result="> 7.30"
compound="CCc1cc(NC(=O)C(=O)N2C[C@@H](C)CC[C@@H]2c2ccc3sc(C4CCN(C)CC4C)nc3c2)cnc1N (stereo partly drawn) [Compound 1382]" result="> 7.30"
compound="Cc1cc(C)n(-c2cccc([C@@H]3CC[C@@H](C)CN3C(=O)C(=O)Nc3cncc(C(N)=O)c3)c2)n1 (racemic) [Compound 153]" result="6.30 to 7.30"
compound="CNc1ccc([C@@H]2CC[C@@H](C)CN2C(=O)C(=O)Nc2cncc(C(N)=O)c2)cn1 (racemic) [Compound 209]" result="> 7.30"

Attention now shifts to the item below.
Kindly note the recorded pIC50 for Cc1cc(NC(=O)C(=O)N2C[C@@H](C)CC[C@@H]2c2ccc3c(c2)C(=O)NC3)cnc1N (single isomer, unassigned) [Compound 657] , which is > 7.30

====

target: PRMT5 (Homo sapiens); construct: purchased Viva (custom protein); assay: PRMT5 biochemical IC50 assay with no cofactor; conditions: PRMT5, no cofactor; read-out: No Cofactor/rel IC50
quantity: IC50

molecule="COc1ncc(NC(=O)C(=O)N2C[C@@H](C)CC[C@@H]2c2ccc3sc([C@@H]4CCN(C)C[C@H]4C)nc3c2)cc1C(N)=O (racemic)" result="< 0.05 µM"
molecule="C[C@@H]1CC[C@@H](c2ccc(C(F)(F)F)c(Cl)c2)N(C(=O)C(=O)Nc2cncc(C(N)=O)c2)C1 (single isomer, unassigned)" result="> 0.5 µM"
molecule="NC(=O)c1cncc(NC(=O)C(=O)N2C[C@H](OC(F)F)CC[C@@H]2c2ccccc2)c1 (racemic)" result="> 0.5 µM"
molecule=COc1ncc(NC(=O)C(=O)N2C[C@@H](C)CC[C@@H]2c2ccc3sc(C4CC5(C4)CN(C)C5)nc3c2)cc1C(N)=O result="< 0.05 µM"
molecule="COc1ncc(NC(=O)C(=O)N2C[C@@H](C)CC[C@@H]2c2ccc3c(c2)C(=O)NC3)cc1C(N)=O (racemic)" result="0.05 to 0.5 µM"

From here, focus on the item given below.
// field: IC50; key: Cc1cc(NC(=O)C(=O)N2C[C@H](C)CC[C@H]2[C@H]2CCC[C@H](O)C2)cnc1N (single isomer, unassigned) ; value = 0.05 to 0.5 µM

====

target: PRMT5 (Homo sapiens); construct: purchased Viva (custom protein); experiment: PRMT5 biochemical IC50 assay with no cofactor; conditions: PRMT5, no cofactor; read-out: No Cofactor/rel IC50
pIC50: −log10 of the molar value.
Below is a list of entries, each paired with its recorded pIC50 value.

Take a look at these entries with their results.
compound="CCc1cc(NC(=O)C(=O)N2C[C@@H](C)CC[C@@H]2c2ccc(N3CCN(C)C[C@@H]3C)nc2)cnc1N (racemic) [Compound 1099]" system_tested="PRMT5 (Homo sapiens)" quantity=pIC50 result="> 7.30"
compound="CCc1cc(NC(=O)C(=O)N2C[C@@H](C)CC[C@@H]2c2ccc3sc(CO)nc3c2)cnc1N [Compound 1152]" system_tested="PRMT5 (Homo sapiens)" quantity=pIC50 result="> 7.30"
compound="Cc1ccc([C@@H]2CC[C@H](C)CN2C(=O)C(=O)Nc2cncc(C(N)=O)c2)nc1 (racemic) [Compound 880]" system_tested="PRMT5 (Homo sapiens)" quantity=pIC50 result="< 6.30"
compound="Cc1cc(NC(=O)C(=O)N2C[C@H](C)CC[C@H]2c2ccc(N3CCN(C)CC3)cc2)cnc1N (single isomer, unassigned) [Compound 1193]" system_tested="PRMT5 (Homo sapiens)" quantity=pIC50 result="< 6.30"
compound="Cc1cc([C@@H]2CC[C@@H](C)CN2C(=O)C(=O)Nc2cncc(C(N)=O)c2)cc(C)c1O (single isomer, unassigned) [Compound 335]" system_tested="PRMT5 (Homo sapiens)" quantity=pIC50 result="6.30 to 7.30"

Now turn to the next compound.
Lab note: Cc1cc(NC(=O)C(=O)N2C[C@H](C)CC[C@H]2c2cc[nH]n2)cnc1N (single isomer, unassigned) [Compound 1050] gave pIC50 of < 6.30

====

Catalogue of IC50 values
biological target: PRMT5 (Homo sapiens); construct: purchased Viva (custom protein); assay: PRMT5 biochemical IC50 assay with MTA as cofactor; details: PRMT5, MTA as cofactor; read-out: MTA IC50

Sample answers from the record:
compound="CCc1cc(NC(=O)C(=O)N2C[C@@H](C)CC[C@@H]2c2ccc3sc([C@H]4CCN(C)C(C)(C)C4)nc3c2)cnc1N [Compound 1125]" result="< 0.05 µM"
compound="CC(=O)Nc1ccc([C@@H]2CC[C@@H](C)CN2C(=O)C(=O)Nc2cncc(C)c2)cc1 (racemic)" result="0.05 to 0.5 µM"
compound="COc1ncc(NC(=O)C(=O)N2C[C@@H](C)CC[C@H]2c2ccc(C)cn2)cc1C(N)=O (racemic)" result="0.05 to 0.5 µM"
compound="C[C@@H]1CC[C@@H](c2ccc(O)c(C(C)(C)C)c2)N(C(=O)C(=O)Nc2cncc(C(N)=O)c2)C1 (racemic)" result="0.05 to 0.5 µM"
compound="Cc1cc(NC(=O)C(=O)N2C[C@H](C)CC[C@H]2c2cccc(N3CCN(C)CC3)c2)cnc1N (single isomer, unassigned) [Compound 1121]" result="> 0.5 µM"

The compound identified as CC(=O)Nc1ccc([C@H]2CC[C@H](C)CN2C(=O)C(=O)Nc2cncc(C(N)=O)c2)s1 (single isomer, unassigned) registered its IC50 at > 0.5 µM

The compound listed as Cc1cccc2cc([C@@H]3CC[C@@H](C)CN3C(=O)C(=O)Nc3cncc(C(N)=O)c3)cnc12 (racemic) shows IC50 equal to 0.05 to 0.5 µM

Briefly, IC50 measured for COc1ncc(NC(=O)C(=O)N2C[C@@H](C)CC[C@@H]2c2ccc(C(N)=O)s2)cc1C(N)=O (single isomer, unassigned) : < 0.05 µM

====

target: PRMT5 (Homo sapiens, UniProt O14744); construct: purchased Viva (custom protein); assay: PRMT5 biochemical IC50 assay with MTA as cofactor; details: PRMT5, MTA as cofactor; read-out: MTA IC50
Sequence (O14744 whole entry): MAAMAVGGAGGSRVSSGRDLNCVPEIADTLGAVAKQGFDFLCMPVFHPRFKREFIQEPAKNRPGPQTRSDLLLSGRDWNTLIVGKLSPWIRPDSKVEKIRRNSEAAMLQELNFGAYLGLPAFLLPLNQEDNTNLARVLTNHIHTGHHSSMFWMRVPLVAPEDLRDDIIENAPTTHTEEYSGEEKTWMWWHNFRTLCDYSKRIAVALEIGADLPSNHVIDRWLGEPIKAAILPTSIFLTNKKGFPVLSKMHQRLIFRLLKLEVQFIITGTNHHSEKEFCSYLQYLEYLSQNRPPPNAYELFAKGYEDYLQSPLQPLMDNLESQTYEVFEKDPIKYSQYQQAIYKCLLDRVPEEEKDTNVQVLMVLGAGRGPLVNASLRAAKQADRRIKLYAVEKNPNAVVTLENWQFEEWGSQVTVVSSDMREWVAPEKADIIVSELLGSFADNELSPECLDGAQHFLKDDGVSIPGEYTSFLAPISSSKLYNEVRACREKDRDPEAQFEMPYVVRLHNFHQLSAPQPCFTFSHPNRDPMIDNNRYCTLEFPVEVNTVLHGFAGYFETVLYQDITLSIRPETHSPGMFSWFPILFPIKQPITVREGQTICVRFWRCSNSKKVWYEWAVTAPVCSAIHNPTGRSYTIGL
Sequence (Q9BQA1 whole entry partner): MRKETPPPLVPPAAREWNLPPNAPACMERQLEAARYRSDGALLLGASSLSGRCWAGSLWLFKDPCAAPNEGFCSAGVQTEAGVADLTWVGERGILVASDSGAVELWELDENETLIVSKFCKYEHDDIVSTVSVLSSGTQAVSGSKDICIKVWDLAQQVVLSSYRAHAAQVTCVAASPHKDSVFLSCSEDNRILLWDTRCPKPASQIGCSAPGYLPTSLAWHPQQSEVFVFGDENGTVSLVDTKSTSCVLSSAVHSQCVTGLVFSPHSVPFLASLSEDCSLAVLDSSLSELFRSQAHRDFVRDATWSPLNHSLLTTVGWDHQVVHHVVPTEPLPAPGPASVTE
IC50 values for the compounds below.

Examples from the recorded data:
compound="COc1ncc(NC(=O)C(=O)N2C[C@H](C)CC[C@H]2C2CCCCC2)cc1C(N)=O (single isomer, unassigned) [Compound 370]" quantity=IC50 result="> 500 nM"
compound="C[C@@H]1CN(C(=O)C(=O)Nc2cncc(C(N)=O)c2)[C@@H](c2ccc(F)c(F)c2)CC1(F)F (single isomer, unassigned) [Compound 706]" quantity=IC50 result="> 500 nM"
compound="CCc1cc(NC(=O)C(=O)N2C[C@@H](C)CC[C@@H]2c2ccc3sc(C4CCN(CC(F)F)CC4)nc3c2)cnc1N [Compound 1304]" quantity=IC50 result="< 50 nM"

Measured IC50 of COc1ncc(NC(=O)C(=O)N2C[C@H](C)CC[C@H]2c2ccccc2)cc1C(N)=O (single isomer, unassigned) [Compound 333] : < 50 nM

IC50 reported for this compound C[C@@H]1CC[C@@H](c2cccc(C(N)=O)c2)N(C(=O)C(=O)Nc2cncc(C(N)=O)c2)C1 (racemic) [Compound 125] : 50 to 500 nM

Entry under test: COc1ccc([C@@H]2CC[C@@H](C)CN2C(=O)C(=O)Nc2cncc(C(N)=O)c2)cc1F (racemic) [Compound 208] . Its IC50 was < 50 nM

====

molecular target: PRMT5 (Homo sapiens); construct: purchased Viva (custom protein); test: PRMT5 biochemical IC50 assay with SAM as cofactor; details: PRMT5, SAM as cofactor; read-out: SAM IC50
quantity: IC50

// solved cases for IC50 follow
compound="Cc1cc(NC(=O)C(=O)N2C[C@@H](C)CC[C@@H]2c2ccc(N3CCN(C)CC3)nc2)cnc1N (single isomer, unassigned)" system_tested="PRMT5 (Homo sapiens)" quantity=IC50 result="> 500 nM"
compound="C[C@@H]1CC[C@@H](C2CCC2)N(C(=O)C(=O)Nc2cncc(C(N)=O)c2)C1 (racemic) [Compound 155]" system_tested="PRMT5 (Homo sapiens)" quantity=IC50 result="50 to 500 nM"
compound="C[C@H]1CC[C@H](c2cc3[nH]ncc3s2)N(C(=O)C(=O)Nc2cncc(C(N)=O)c2)C1 (single isomer, unassigned)" system_tested="PRMT5 (Homo sapiens)" quantity=IC50 result="50 to 500 nM"
compound="NC(=O)c1cncc(NC(=O)C(=O)N2CC[C@@]3(O)CCCC[C@H]3C2)c1 (racemic)" system_tested="PRMT5 (Homo sapiens)" quantity=IC50 result="> 500 nM"
compound="C[C@@H]1CCC[C@H](c2ccccc2)N1C(=O)C(=O)Nc1cncc(C(N)=O)c1 (single isomer, unassigned)" system_tested="PRMT5 (Homo sapiens)" quantity=IC50 result="> 500 nM"

The compound listed as COc1ncc(NC(=O)C(=O)N2C[C@H](C)[C@H](OC)C[C@H]2c2ccc3scnc3c2)cc1C(N)=O (single isomer, unassigned) shows IC50 equal to 50 to 500 nM

So for C[C@@H]1CC[C@@H](c2ccc(C#N)c(C3CC3)c2)N(C(=O)C(=O)Nc2cncc(C(N)=O)c2)C1 (racemic) , the logged IC50 turned out to be 50 to 500 nM

Lab book: IC50 of C[C@@H]1CC[C@@H](c2ccc(S(N)(=O)=O)cc2)N(C(=O)C(=O)Nc2cncc(C(N)=O)c2)C1 (racemic) [Compound 651] noted as 50 to 500 nM

According to the records, this compound Cc1cc(NC(=O)C(=O)N2C[C@H](C)CC[C@@H]2C)cnc1N (racemic) displays IC50 of 50 to 500 nM

The compound listed as C[C@@H]1CC[C@@H](c2ccc(Cl)cc2)N(C(=O)C(=O)Nc2cncc(C(N)=O)c2)C1 (single isomer, unassigned) [Compound 570] has a reported IC50 of 50 to 500 nM

GET /value?item= Cc1cc(NC(=O)C(=O)N2C[C@H](C)C(F)(F)C[C@H]2c2ccc(F)c(F)c2)cnc1N (single isomer, unassigned) &field=IC50 returns > 500 nM

Per the records, this compound ( CCc1cc(NC(=O)C(=O)N2C[C@@H](C)CC[C@@H]2c2ccc(N3CCN(CC)CC3)c(C)c2)cnc1N (racemic) ) has IC50 equal to 50 to 500 nM

Measured IC50, CC1(C)CCC[C@H]2CN(C(=O)C(=O)Nc3cncc(C(N)=O)c3)CC[C@@H]21 (single isomer, unassigned) : 50 to 500 nM
